target: Dihydroorotate dehydrogenase (quinone), mitochondrial (Plasmodium falciparum (isolate 3D7)); experiment: PfDHODH enzyme inhibitors, primary screen, biochemical, C-terminal His tag, absorbance 600 nm (AID 1175); conditions: DCIP absorbance 600 nm, higher = more signal, called active from +8 up or from −8 down;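 further: recombinant parasite enzyme with a five histidine tag at its C terminus; test concentration not given here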
Hi, to clarify the labels: yes covers composite z-score from -1 upward, no covers anything below -1.

{"molecule": "COCCOC(=O)N1C(=O)[C@@]2(c3cc(C#CCNC(N)=O)ccc31)[C@H](c1ccc(OCCO)cc1)N1[C@H](c3ccccc3)[C@H](c3ccccc3)OC(=O)[C@H]1[C@@H]2C(=O)N1CCc2cc(OC)c(OC)cc2C1", "assigned category": "yes"}
{"molecule": "CC(C)OC(=O)CC(=O)CC(O)c1ccc(C#N)cc1 (configuration not stated)", "assigned category": "no"}
{"molecule": "O=C1O[C@H](c2ccccc2)[C@H](c2ccccc2)N2[C@H]1[C@@H](C(=O)O)[C@]1(C(=O)Nc3ccc(C#CC4(O)CCCCCC4)cc31)[C@H]2c1ccc(OCCO)cc1", "assigned category": "no"}
{"molecule": "COc1ccc([Si](C)(C)[C@H]2[C@H](CCn3cc(CCO)nn3)O[C@@]3(C(=O)N(Cc4ccc(N5CCOC5=O)cc4)c4ccccc43)[C@@H]2C)cc1", "assigned category": "yes"}

Exam item: Is the recorded value of composite z-score equal to or greater than -1 for this molecule? CO[C@H]1O[C@H](CO)[C@@H](OC(=O)Nc2ccc3c(c2)OCO3)[C@H](OC(=O)Nc2ccccc2)[C@H]1OC(=O)Nc1ccccc1
Marked response: yes

Exam item: Is the recorded value of composite z-score equal to or greater than -1 for this molecule? COCC(=C=CC[C@@H](O)c1ccc(CO)o1)CCO
Marked response: no

Exam item: Is the recorded value of composite z-score equal to or greater than -1 for this molecule? O=C1N(CCS(=O)(=O)c2ccccc2)Cc2ccccc2C[C@]12N=C(c1ccc(OCCCO)cc1)O[C@@H]2c1ccccc1
Marked response: no

###

target: NADPH oxidase 2 (Homo sapiens); test: NOX2-dependent H2O2 signal modulators, primary screen, NOX inhibitor project, cell-based, HEK293-NOX2, PMA-stimulated, Amplex Red fluorescence (AID 1159); details: 45 min, higher = more signal, called active from +8 up or from −8 down; further: test concentration not given here
property label: z-score
// keep it numeric: no unit symbol after the value

Exam item: Determine its reported z-score: COc1cc(CO)ccc1OC(C)=O
Marked response: -4.55

Exam item: Determine its reported z-score: CN1C(=O)C2C=CC(C(O)c3ccccn3)N(Nc3ccccc3)C2C1=O (stereo not given)
Marked response: -1.35

Exam item: Determine its reported z-score: O=C1O[C@H](c2ccccc2)[C@H](c2ccccc2)N2[C@H]1[C@@H](C(=O)NC[C@H](O)c1ccccc1)[C@]1(C(=O)Nc3ccc(C#CCCO)cc31)[C@H]2c1ccc(O)cc1
Marked response: -0.687

Exam item: Determine its reported z-score: CCCNC(=O)[C@@]1(c2ccc([N+](=O)[O-])cc2)CC(=O)N(CC23CC4CC(CC(C4)C2)C3)[C@@H]1c1ccc(CO)cc1
Marked response: 0.328

Exam item: Determine its reported z-score: CN(C)CCCCNC(=O)[C@H]1C[C@H]2C(=O)N[C@@H](Cc3ccccc3)C(=O)N2[C@H]1c1ccc(O)cc1
Marked response: -1.35

Attribution: PubChem BioAssay
